test system: Trypanosoma cruzi; assay: Inhibitory concentration against growth of Trypanosoma cruzi amastigotes; format: functional, organism-based
ASSAY_READOUT: IC50

CCCCCC(N)(P(=O)(O)O)P(=O)(O)O = 77 µM
CCC(N)(P(=O)(O)O)P(=O)(O)O = > 85 µM
CCCCCCC(N)(P(=O)(O)O)P(=O)(O)O = 72 µM
CC(N)(P(=O)(O)O)P(=O)(O)O = > 100 µM
CCCC(N)(P(=O)(O)O)P(=O)(O)O = > 85 µM
CCCCC(N)(P(=O)(O)O)P(=O)(O)O = > 85 µM

Taken from ChEMBL document CHEMBL1143452.
